test: in vitro; design: Viability of infected HeLa host cells, resazurin conversion, bulk resorufin fluorescence relative to DMSO; details: human, hela cells; bulk resorufin, mean of 2
Listing of recorded viability at 28.5 h, 1 µM by entry.
metric.name: viability at 28.5 h, 1 µM (%)

INSERT INTO results (compound, value_reported) VALUES
  ('CNC(=S)N1CCN(c2nsc3ccccc23)CC1 [CBK288515]', 98.8),
  ('O=C(O)c1cn(C2CC2)c2cc(N3CCN(C(=O)C4CCCO4)CC3)c(F)cc2c1=O (stereo not drawn) [CBK297139]', 97),
  ('CC(=O)Nc1ccc(-c2cccc(COC3CCN(C(=O)c4ccc(OC(C)C)cc4)CC3)c2)cc1 [CBK149485]', 89.4),
  ('OCC1(CNc2ncc(F)c(N3CCCC3)n2)CCOCC1 [CBK306647]', 100),
  ('O=S(=O)(Nc1ncccn1)c1ccc(NC(=S)Nc2ccc3c(c2)OCO3)cc1 [CBK267046]', 114),
  ('O=[N+]([O-])c1cccc(C(Nc2cccnc2)c2cc(Cl)c3cccnc3c2O)c1 (stereo not drawn) [CBK268629]', 93.9);

====

assay: in vitro; settings: human, hela cells, % viability, bulk resorufin, single well
metric.name: viability at 28.5 h, 10 µM (%)

INSERT INTO assay_data (molecular_string, metric_name, value_reported) VALUES
  ('CCOC(=O)N1CCC2(CC1)Oc1ccc(Cl)cc1O2', 'viability at 28.5 h, 10 µM', 94.2),
  ('CCC(=O)N(C[C@H]1CCC[C@@H]1N(C)C)c1ccc(Cl)c(Cl)c1', 'viability at 28.5 h, 10 µM', 96.5),
  ('Cc1cn(-c2ccc(OC(=O)NC(C)(C)C)c(Cl)c2)c(=O)n1C', 'viability at 28.5 h, 10 µM', 106),
  ('COc1ccccc1NC(=O)N1CCC2(CC1)OCc1cc(-c3ccccc3)ccc1O2', 'viability at 28.5 h, 10 µM', 109),
  ('COc1cc(CNC(=O)c2cccc(-c3ccc4c(c3)COC3(CCNCC3)O4)c2)cc(OC)c1OC', 'viability at 28.5 h, 10 µM', 87.8);

====

Listing of recorded viability at 28.5 h, 10 µM by entry.
assay: in vitro; conditions: human, hela cells, % viability
metric.name: viability at 28.5 h, 10 µM (%)

INSERT INTO results (molecule, value_reported) VALUES
  ('O=C(c1cccnc1)N1CCN(CC2(c3ccccc3)CC2)CC1', 94.5),
  ('Cc1cccc2c(C(=O)NCc3ccc(S(N)(=O)=O)cc3)cc(-c3ccccc3Cl)nc12', 93),
  ('Cc1cc(OCc2nnc(SCC(=O)Nc3ccc(I)cc3)n2C)ccc1Cl', 113),
  ('Cc1ccc2[nH]c(Cc3ccc(NC(=O)c4cccc5c(=O)cc(C)[nH]c45)cc3)nc2c1', 99.5),
  ('O=C(NCCOc1ccc(F)cc1)c1cccs1', 116),
  ('CC(C)C(=O)N1CCC(n2nc(-c3cccs3)ccc2=O)CC1', 86.6),
  ('Cc1nn2c(-c3ccc(NC(=O)c4cccs4)cc3)nnc2c2ccccc12', 89.6),
  ('O=C1CC(c2ccccc2)c2c(c3ccccc3[nH]c2=O)O1 (centres unmarked)', 112);
